Below, each of the compounds is paired with its reported MCH value.
# Species on record: Rattus norvegicus
# Measurement Protocol: Open TG-GATES - Regimen: Single
# Format: toxicity, organism-based, Sprague-Dawley
# Parameters: regimen Single, gender Male, age 6 weeks
# Run Parameters: in vivo, po, 0 mg/kg, 9 h, tissue Blood, route gavage, dose level Control
Use pg as the unit, but write only the number.

For orientation, consider the following solved cases.
CN(C)CCC(c1ccc(Cl)cc1)c1ccccn1 (configuration not stated): 21.6
CC(C)NNC(=O)c1ccncc1: 21.4

## Input Which value of MCH has been reported for CCOc1ccc(NC(C)=O)cc1 in the records?
## Output 21.6

## Input Now the same for Brc1ccccc1
## Output 21.5

###

Below, each of the molecules is paired with its reported Neu value.
# Species: Rattus norvegicus
# Measurement Protocol: Open TG-GATES - Regimen: Daily Repeat
# Format: toxicity, organism-based, Sprague-Dawley
# Design: regimen Daily Repeat, gender Male, age 6 weeks
# Run Parameters: in vivo, po, 1000 mg/kg, […], tissue Blood, route gavage, dose level High, time 28 day
Use % as the unit, but write only the number.

O=C(OC[C@H]1O[C@@H](OC(=O)c2cc(O)c(O)c(OC(=O)c3cc(O)c(O)c(O)c3)c2)[C@H](OC(=O)c2cc(O)c(O)c(OC(=O)c3cc(O)c(O)c(O)c3)c2)[C@@H](OC(=O)c2cc(O)c(O)c(OC(=O)c3cc(O)c(O)c(O)c3)c2)[C@@H]1OC(=O)c1cc(O)c(O)c(OC(=O)c2cc(O)c(O)c(O)c2)c1)c1cc(O)c(O)c(OC(=O)c2cc(O)c(O)c(O)c2)c1: 12.6

## Input Which value of Neu has been reported for CN/C(=N/CCSCc1nc[nH]c1C)NC#N in the records?
## Output 12.6

## Input Now the same for Cc1nnc2n1-c1ccc(Cl)cc1C(c1ccccc1Cl)=NC2
## Output 18.4

###

Below, each of the compounds is paired with its reported log10(TBIL) value.
# Species: Rattus norvegicus
# Measurement Protocol: Open TG-GATES - Regimen: Daily Repeat
# Type: toxicity, organism-based, Sprague-Dawley
# Design: regimen Daily Repeat, gender Male, age 6 weeks
# Run Parameters: in vivo, po, 0 mg/kg, […], tissue Plasma, route gavage, dose level Control, time 7 day
Would you kindly interpret these values as log10 of TBIL expressed in mg/dL?

COC(=O)C1=C(C)NC(C)=C(C(=O)OC)C1c1ccccc1[N+](=O)[O-] [NIFEDIPINE]: -1.59
NC1=NC(=O)C(c2ccccc2)O1 (stereo unspecified) [PEMOLINE]: -1.55
CCCc1cc(=O)[nH]c(=S)[nH]1 [PROPYLTHIOURACIL]: -0.40
CN(C)CCC(c1ccc(Cl)cc1)c1ccccn1 (stereo unspecified) [CHLORPHENIRAMINE]: -1.47
CCOc1ccc(NC(C)=O)cc1 [PHENACETIN]: -1.36

Next compound, log10(TBIL) to be filled in.
## Input Which value of log10(TBIL) has been reported for CNC(=C[N+](=O)[O-])NCCSCc1ccc(CN(C)C)o1 [RANITIDINE] in the records?
## Output -1.00

###

# Species: Rattus norvegicus
# Measurement Protocol: Open TG-GATES - Regimen: Daily Repeat
# Type: toxicity, organism-based, Sprague-Dawley
# Set-up: regimen Daily Repeat, gender Male, age 6 weeks
# Run Parameters: in vivo, po, 0 mg/kg, […], tissue Plasma, route gavage, dose level Control, time 14 day
Property Label: K (meq/L)
Use meq/L as the unit, but write only the number.

Nc1c2c(nc3ccccc13)CCCC2: 4.1
COC(=O)C1=C(C)NC(C)=C(C(=O)OC)C1c1ccccc1[N+](=O)[O-]: 4
CN/C(=N/CCSCc1nc[nH]c1C)NC#N: 4.1
Brc1ccccc1: 3.9
CN1C(=O)CCS(=O)(=O)C1c1ccc(Cl)cc1 (stereo not drawn): 4
CNC(=C[N+](=O)[O-])NCCSCc1ccc(CN(C)C)o1: 3.9
Cc1nnc2n1-c1ccc(Cl)cc1C(c1ccccc1Cl)=NC2: 3.9

Next compound, K to be filled in.
## Input Which value of K has been reported for CC(C)NNC(=O)c1ccncc1 in the records?
## Output 4
